tested on: SK-MEL-5 melanoma; test: NCI tumour cell line growth inhibition, 48 h
So basically: TGI at 3 µM or higher? That is Condition met. Lower than 3 µM? That is Condition not met.

{"compound": "COc1cc(/C=C/C=C2\\CC(C)C/C(=C\\C=C\\c3ccc(O)c(OC)c3)C2=O)ccc1O (stereo not given)", "label": "Condition met"}
{"compound": "O=C(n1c(=O)n(-c2ccc([N+](=O)[O-])cc2)c(=O)n1C(=O)C(Cl)(Cl)Cl)C(Cl)(Cl)Cl", "label": "Condition met"}
{"compound": "Cc1nc(-c2ccc(Cl)cc2)cn2c1nc1ccccc12", "label": "Condition met"}
{"compound": "C#Cc1ccccc1C(=O)OC", "label": "Condition met"}
{"compound": "CCCNC(=O)Cn1c(-c2ccccc2)cc2ccccc21", "label": "Condition met"}
{"compound": "CN(CCc1ccccn1)C(=S)N/N=C/c1ccccn1", "label": "Condition not met"}
{"compound": "COc1ccc(CNc2cnc3cc(N)ccc3n2)cc1OC", "label": "Condition met"}
{"compound": "O=C(O)CCN1C(=O)/C(=C/C(Cl)=C/c2ccccc2)SC1=S", "label": "Condition met"}
{"compound": "COc1cccc2c1C(=O)c1c(O)c3c(c(O)c1C2=O)C[C@](O)(C(=O)CO)CC3OC1CC(N)C(OC2CCCCO2)C(C)O1 (stereo not given in full)", "label": "Condition not met"}

Note: attention shifts to another entry.
Query: Quick check: does "CCOc1cc(C=Nc2ccc(Oc3ccc(Cl)cc3)c(Cl)c2)ccc1O" have TGI greater than or equal to 3 µM?
Response: Condition met

====

test system: SN12C renal; assay: NCI tumour cell line growth inhibition, 48 h
recorded endpoint: TGI

Example entries and their recorded answers appear below.
{"compound": "c1csc(-c2csc(-c3cccs3)c2)c1", "recorded endpoint": "TGI", "result": "> 100 µM"}
{"compound": "CC1(C)CN=C(c2ccc3ccccc3c2O)N1", "recorded endpoint": "TGI", "result": "> 100 µM"}
{"compound": "Cc1ccc(S(=O)(=O)ON=C2CC(c3ccccc3)N(C)C(c3ccccc3)C2)cc1 (centres undefined)", "recorded endpoint": "TGI", "result": "55 µM"}
{"compound": "COC(=O)[C@]12CCC(=O)N1[C@H](C(=O)O)Cc1c2[nH]c2ccccc12", "recorded endpoint": "TGI", "result": "> 100 µM"}
{"compound": "C1CN(C23OC4(N5CCOCC5)C5C6CC(C7C6C4C72)C53)CCO1 (centres undefined)", "recorded endpoint": "TGI", "result": "> 100 µM"}
{"compound": "CC(C)=CCC[C@](C)(O)[C@H]1CC[C@]2(C)[C@@H]1CC[C@@H]1[C@@]3(C)CC[C@H](OC(=O)CCC(=O)O)C(C)(C)[C@@H]3CC[C@]12C", "recorded endpoint": "TGI", "result": "78.1 µM"}

Respectfully, I request TGI for each entry included below.
1. OCC1CC2CC1C1(C2)OCCO1 (centres undefined)
2. CC(C)c1cc2c(O)c(c1)Cc1cc(C(C)C)cc(c1O)Cc1cc(C(C)C)cc(c1O)Cc1cc(C(C)C)cc(c1O)Cc1cc(C(C)C)cc(c1O)Cc1cc(C(C)C)cc(c1O)C2

Response:
["> 100 µM", "> 100 µM"]

Query: Given the compound O=C(O)c1cc2c(cc1CC(Cc1ccccc1)C(=O)O)CCC2 (centres undefined) , what is its reported TGI?
Response: > 100 µM
